Measured values drawn from patent US6667335B2 for this set.

Where a name gives a salt, the structure may show the parent alone.

# COMPOUND, melting point
rows = [
    ("COc1cccc(-n2cnc(Cn3ccnc3)c2)c1.Cl.Cl", "219 to 220 °C"),
    ("Cl.Cl.Fc1cc(Br)cc(-n2cnc(Cn3ccnc3)c2)c1", "> 200 °C (dec.)"),
    ("Cc1ccc(-n2cnc(Cn3ccnc3C)c2)cc1C.Cl.Cl", "249 to 251 °C"),
    ("CCc1nccn1Cc1cn(-c2ccc(Cl)c(C)c2)cn1.Cl.Cl", "186 to 187 °C"),
    ("Cc1nccn1Cc1cn(-c2ccc3ncccc3c2)cn1 (as salt: sodium)", "> 125 °C (dec.)"),
    ("CCc1nccn1Cc1cn(-c2ccc(C)c(C(F)(F)F)c2)cn1.Cl.Cl", "> 250 °C"),
    ("Cc1nccn1Cc1cn(-c2cccc(C(C)(F)F)c2)cn1.Cl.Cl", "> 200 °C (dec.)"),
    ("Cl.Cl.FC(F)(F)c1ccc(-n2cnc(Cn3ccnc3)c2)cc1", "220 to 222 °C"),
    ("Cc1ncn(Cc2cn(-c3ccc(Cl)c(Cl)c3)cn2)c1C.Cl.Cl", "> 250 °C"),
    ("Cc1nccn1Cc1cn(-c2cccc3cccnc23)cn1 (as salt: sodium)", "150 to 154 °C"),
]
